- experiment_description: Pharmacokinetic studies in mice (IV and PO)
- Format: in vivo
- measurement_parameters: mouse, plasma, PO 10 mg/kg
half-life by entry:
test_readout: half-life (h)

INSERT INTO assay_data (molecule, observed) VALUES
  ('CO[C@H]1C2=CC(C2)[C@H](C)[C@@H](C)S(=O)(=O)NC(=O)c2ccc3c(c2)N(C[C@@H]2CC[C@H]21)C[C@@]1(CCCc2cc(Cl)c(F)cc21)CO3 (single isomer, unassigned) [Cpd. No. 21 (isomer 1)]', 2.8),
  ('CO[C@H]1C2=C[C@@H](C2)[C@H](C)[C@@H](C)S(=O)(=O)NC(=O)c2ccc3c(c2)N(C[C@@H]2CC[C@H]21)C[C@@]1(CCCc2cc(Cl)ccc21)CO3 (single isomer, unassigned) [Cpd. No. 15 (isomer 1)]', 3.4),
  ('CO[C@H]1C2=CC(C)(C2)[C@H](C)CS(=O)(=O)NC(=O)c2ccc3c(c2)N(C[C@@H]2CC[C@H]21)C[C@@]1(CCCc2cc(Cl)ccc21)CO3 (mixture of isomers) [13 (mixture)]', 4.5),
  ('CO[C@H]1C2=CC(C2)[C@H](C)CS(=O)(=O)NC(=O)c2ccc3c(c2)N(C[C@@H]2CC[C@H]21)C[C@@]1(CCCc2cc(Cl)ccc21)CO3 (single isomer, unassigned) [Cpd. No. 14 (Isomer 1)]', 3.6);
